# system_under_test: human PD-1 (Jurkat-PD-1 cells) / PE-labeled human PD-L1-Ig (Homo sapiens)
# Construct: expressed in transfected cells; host or cells: Jurkat cell line over-expressing human PD-1
# Sequence (Q15116 25-288): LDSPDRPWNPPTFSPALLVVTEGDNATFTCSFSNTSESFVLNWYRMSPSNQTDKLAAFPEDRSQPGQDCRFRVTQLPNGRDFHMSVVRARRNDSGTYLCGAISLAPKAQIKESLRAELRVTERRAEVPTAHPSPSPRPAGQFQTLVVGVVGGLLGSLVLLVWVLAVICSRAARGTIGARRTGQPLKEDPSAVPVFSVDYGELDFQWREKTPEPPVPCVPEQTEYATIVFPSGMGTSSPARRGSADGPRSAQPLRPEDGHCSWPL
# assay: Jurkat-PD-1 Cell Binding High-Content Screening Assay (CBA); Jurkat hPD1-PDL1 assay
# details: Jurkat cell line over-expressing human PD-1; PE-labeled PD-L1-Ig 20 nM final; compound incubated 2 hours at 37° C.; read-out: Jurkat HPD1-PDL1 IC50
pIC50: −log10 of the molar value. Positions of bridges follow the written chain, without caps; N, C: chain ends. Non-standard residues stand in square brackets, D forms with d. Residues, ends and D or L forms follow the SMILES beside them. *: point of attachment. Bip = N[C@@H](Cc1ccc(-c2ccccc2)cc1)C(=O)O; Carboxymethyl = O=C(O)C*; NMeA = CN[C@@H](C)C(=O)O; Nle = CCCC[C@H](N)C(=O)O; Sar = CNCC(=O)O
Listed here: items and their measured pIC50.
reported_property: pIC50

>>> endpoint_value("CCCC[C@@H]1NC(=O)[C@H](CC(N)=O)NC(=O)[C@H]2CCCN2C(=O)[C@H](C)N(C)C(=O)[C@H](C(C)C)NC(=O)[C@H](Cc2ccc(-c3ccccc3)cc2)NC(=O)[C@H](CC(C)C)NC(=O)[C@H](Cc2c[nH]c3ccccc23)NC(=O)[C@H](CC(=O)O)NC(=O)[C@H](Cc2ccc(O)cc2)NC(=O)[C@H](Cc2ccccc2)NC(=O)CSC[C@@H](C(=O)N[C@@H](C)C(N)=O)NC(=O)[C@H]([C@@H](C)O)NC(=O)[C@H](C(C)C)NC1=O [Example 1097] ({CH2CO}-FYDWL[Bip]V[NMeA][dP]N[Nle]VTCA-NH2; thioether N-14)")
6.55
>>> endpoint_value("CC(C)C[C@@H]1NC(=O)[C@H](Cc2c[nH]c3ccccc23)NC(=O)[C@H](CC(=O)O)NC(=O)[C@H](Cc2ccc(OCC(=O)O)cc2)NC(=O)[C@H](Cc2ccccc2)NC(=O)CSC[C@@H](C(=O)NCC(N)=O)NC(=O)[C@H](CO)NC(=O)[C@H](C(C)C)NC(=O)[C@H](CC(C)C)NC(=O)[C@H](CC(N)=O)NC(=O)CN(C)C(=O)[C@H](C)N(C)C(=O)[C@H](C(C)C)NC(=O)[C@H](Cc2ccc(-c3ccccc3)cc2)NC1=O [Example 1030] ({CH2CO}-FY(Carboxymethyl)DWL[Bip]V[NMeA][Sar]NLVSCG-NH2; thioether N-14)")
7.22

---

# system_under_test: human PD-1 (Jurkat-PD-1 cells) / PE-labeled human PD-L1-Ig (Homo sapiens)
# Construct: expressed in transfected cells; host or cells: Jurkat cell line over-expressing human PD-1
# assay: Jurkat-PD-1 Cell Binding High-Content Screening Assay (CBA); Jurkat hPD1-PDL1 assay
# details: Jurkat cell line over-expressing human PD-1; PE-labeled PD-L1-Ig 20 nM final; compound incubated 2 hours at 37° C.; read-out: Jurkat HPD1-PDL1 IC50
# Description: The ability of the compounds of formula (I) to bind to PD-1 was investigated using a Jurkat-PD-1 Cell Binding High-Content Screening Assay. Jurkat-PD-1 Cell Binding High-Content Screening Assay (CBA) Phycoerythrin (PE) was covalently linked to the Ig epitope tag of human PD-L1-Ig and fluorescently-labeled PD-L1-Ig was used for binding studies with a Jurkat cell line over-expressing human PD-1 (Jurkat-PD-1). […]
Positions of bridges follow the written chain, without caps; N, C: chain ends. Non-standard residues stand in square brackets, D forms with d. Residues, ends and D or L forms follow the SMILES beside them. ξ: configuration not given here. Bip = N[C@@H](Cc1ccc(-c2ccccc2)cc1)C(=O)O; 3Pal = N[C@@H](Cc1cccnc1)C(=O)O; NMeA = CN[C@@H](C)C(=O)O; Orn = NCCC[C@H](N)C(=O)O; Dab = NCC[C@H](N)C(=O)O; ξS = NC(CO)C(=O)O; Sar = CNCC(=O)O
Listed here: items and their measured IC50.
reported_property: IC50 (µM)

>>> endpoint_value("CC(C)C[C@@H]1NC(=O)[C@H](Cc2c[nH]c3ccccc23)NC(=O)[C@H](CC(=O)O)NC(=O)[C@H](Cc2ccc(O)cc2)NC(=O)[C@H](Cc2cccnc2)NC(=O)CSC[C@@H](C(=O)NCC(N)=O)NC(=O)[C@H](CO)NC(=O)[C@H](C(C)C)NC(=O)[C@H](CC(C)C)NC(=O)[C@H](CC(N)=O)NC(=O)CN(C)C(=O)[C@H](C)N(C)C(=O)[C@H](C(C)C)NC(=O)[C@H](Cc2ccc(-c3ccccc3)cc2)NC1=O [Example 1118] ({CH2CO}-[3Pal]YDWL[Bip]V[NMeA][Sar]NLVSCG-NH2; thioether N-14)")
0.42
>>> endpoint_value("CC(C)C[C@@H]1NC(=O)[C@H](Cc2c[nH]c3ccccc23)NC(=O)[C@H](CC(=O)O)NC(=O)[C@H](Cc2ccc(O)cc2)NC(=O)[C@H](CC(N)=O)NC(=O)CSC[C@@H](C(=O)N[C@@H](C)C(N)=O)NC(=O)[C@H](CO)NC(=O)[C@H](C(C)C)NC(=O)[C@H](CC(C)C)NC(=O)[C@H](CC(N)=O)NC(=O)[C@H]2CCCN2C(=O)[C@H](CCCN)NC(=O)[C@H](C(C)C)NC(=O)[C@H](Cc2ccc(-c3ccccc3)cc2)NC1=O [Example 1425] ({CH2CO}-NYDWL[Bip]V[Orn][dP]NLVSCA-NH2; thioether N-14)")
0.19
>>> endpoint_value("CC(C)C[C@@H]1NC(=O)[C@H](Cc2c[nH]c3ccccc23)NC(=O)[C@H](CC(=O)O)NC(=O)[C@H](Cc2ccc(O)cc2)NC(=O)[C@H](Cc2ccccc2)NC(=O)CSC[C@@H](C(=O)N[C@@H](C)C(N)=O)NC(=O)C(CO)NC(=O)[C@H](C(C)C)NC(=O)[C@H](CC(C)C)NC(=O)[C@H](CCN)NC(=O)[C@H]2CCCN2C(=O)[C@H](CCN)NC(=O)[C@H](C(C)C)NC(=O)[C@H](Cc2ccc(-c3ccccc3)cc2)NC1=O (stereo partly shown) [Example 1415] ({CH2CO}-FYDWL[Bip]V[Dab][dP][Dab]LV[ξS]CA-NH2; thioether N-14)")
0.08
>>> endpoint_value("CC(C)C[C@@H]1NC(=O)[C@H](Cc2c[nH]c3ccccc23)NC(=O)[C@H](CC(=O)O)NC(=O)[C@H](Cc2ccc(O)cc2)NC(=O)[C@H](Cc2ccccc2)NC(=O)CSC[C@@H](C(=O)NCC(N)=O)NC(=O)[C@H](CO)NC(=O)[C@H](C(C)C)NC(=O)[C@H](CC(C)C)NC(=O)[C@H](CCN)NC(=O)[C@H]2CCCN2C(=O)[C@H](C)N(C)C(=O)[C@H](C(C)C)NC(=O)[C@H](Cc2ccc(-c3ccccc3)cc2)NC1=O [Example 1399] ({CH2CO}-FYDWL[Bip]V[NMeA][dP][Dab]LVSCG-NH2; thioether N-14)")
0.07
